growth values for the compounds below.
system: M14 melanoma; test: NCI-60 one-dose screen, 48 h (100 = growth as untreated, 0 = no growth, -100 = all killed); details: 10 µM unless noted
Compounds without any hit were thinned out: in the full panel of roughly 83,000, 20% have a hit. Activity calls are given as the source filed them. The calls were made as follows: active = growth percent below 10; inactive = the rest.
Quantity measured: growth

INSERT INTO results (compound, quantity_measured, reported_result) VALUES
  ('Cn1c(=O)c(C#N)c(-c2ccco2)n2c(S(=O)(=O)Cc3ccccc3)nnc12', 'growth', '57.6% (inactive)'),
  ('CC(C)(C)OC(=O)N1C=C/C(=C\Cn2cc(-c3ccccc3)nn2)CC1', 'growth', '56.5% (inactive)'),
  ('CC[C@@H]1NC(=O)[C@@H]2CCCCN2C(=O)[C@@H]2CCCN2C(=O)[C@@H](NC(=O)[C@H](Cc2cc(F)cc(F)c2)NC(=O)Nc2ccc(C3CC3)cc2F)[C@H](C)OC(=O)[C@@H]2C[C@@H](C)CN2C1=O', 'growth', '16.8% (inactive)'),
  ('COc1ncc(-c2ccc3nc(N)n(-c4ccccc4C(F)(F)F)c(=O)c3c2)cc1S(=O)(=O)Nc1ccc(F)cc1F', 'growth', '8.91% (active)'),
  ('COC(=O)[C@]12CCC(C)(C)C[C@H]1C1=CC[C@@H]3[C@@]4(C)C/C(=C/c5cccnc5)C(=O)C(C)(C)[C@@H]4CC[C@@]3(C)[C@]1(C)CC2', 'growth', '-49.8% [100 µM] (active)'),
  ('O=c1[nH]cnc2c1ccn2C1OC(CO)C(O)C1O (stereo not drawn)', 'growth', '55.9% (inactive)'),
  ('Cc1ccc(S(=O)(=O)n2cc(C(=O)C(=O)N3CCCCC3)c3ccccc32)cc1', 'growth', '89.4% (inactive)'),
  ('COc1ccc(-c2cc(-c3ccccc3)nc(NCCNc3ccnc4cc(Cl)ccc34)n2)cc1', 'growth', '-78.7% (active)');

###

system: TK-10 renal; assay: NCI-60 one-dose screen, 48 h; conditions: 10 µM unless noted
The panel holds about 83,000 compounds, 20% with a hit somewhere; the sample as a whole holds those more often. Calls of active or inactive are those of the source. How the source made its calls: active means growth percent below 10; inactive means the rest.
Labels: yes (1) for active, no (0) for inactive

INSERT INTO measurements (molecule, answer_label) VALUES
  ('COc1ccc(C(=O)c2nccc3cc(OC)c(OC)cc23)cc1OC', 'no (0)'),
  ('C=C(C)[C@@H]1CC[C@]2(COCCCN)CC[C@]3(C)[C@H](CC[C@@H]4[C@@](C)(CCCNCCCN)[C@H](C(=C)C)CC[C@]43C)[C@@H]12', 'yes (1)'),
  ('Cn1cc(-c2noc(-c3cn(C)c4ncccc34)n2)c2cc(Cl)ccc21', 'no (0)'),
  ('COc1ccc(NCc2cn(-c3ccc(C(=O)O)cc3)nc2-c2ccc(C(=O)O)cc2)cc1C(F)(F)F', 'no (0)'),
  ('CC(C)[C@H]1CCC2=C3CC[C@]45OC(=O)[C@@]6(CCC(C)(C)C[C@H]64)CC[C@@]5(C)[C@]3(C)CC[C@@]21C', 'no (0)'),
  ('COc1ccc(C2CC(c3cc(OC)c(OC)c(OC)c3)=NN2C(C)=O)cc1OCC(=O)Nc1nc2ccc(C(F)(F)F)cc2s1 (stereo not given)', 'no (0)'),
  ('COc1ccc(C2NC(=O)C(C#N)c3c2sc2c(F)cccc32)cc1 (stereo not given)', 'no (0)'),
  ('Nc1cc(N)c(N=Nc2ccc(S(=O)(=O)O)cc2)cc1N=Nc1ccc(-c2ccc(N=Nc3ccc(O)c(C(=O)O)c3)cc2)cc1', 'no (0)'),
  ('CN(C)C(=S)Sc1ccc([N+](=O)[O-])cc1[N+](=O)[O-]', 'no (0)'),
  ('N#CC1C(=O)NC(c2ccccc2[N+](=O)[O-])c2sc3c(F)cccc3c21 (stereo not given)', 'no (0)'),
  ('COc1cc(/C=C/C(=O)/C=C/c2ccc(-n3ccnc3C)cc2)ccc1O', 'no (0)'),
  ('O=C1NC(=O)C(Cc2ccc(OCc3ccc(-c4cc(F)c(F)c(F)c4)cc3)cc2)S1 (stereo not given)', 'no (0)'),
  ('CC1(C)S[C@@H]2[C@H](NC(=O)[C@H](C(=O)O)c3cccs3)C(=O)N2[C@H]1C(=O)O', 'no (0)'),
  ('O=C(Nc1cccc(C2=NCCN2)c1)c1cccc(C(=O)Nc2cccc(C3=NCCN3)c2)c1', 'no (0)'),
  ('CCOC(=O)n1cc(C2=C(c3ccc(OC)c(OC)c3)COC2=O)c2ccccc21', 'no (0)'),
  ('CC1(C)CC[C@]2(C(N)=O)CC[C@]3(C)C(=CC[C@@H]4[C@@]5(C)C/C(=C/c6ccncc6)C(=O)C(C)(C)[C@@H]5CC[C@]43C)[C@@H]2C1', 'yes (1)'),
  ('O=C(Nc1ccc(C(=O)/C=C/c2ccc(N3CCOCC3)cc2)cc1)Nc1ccc([N+](=O)[O-])cc1', 'no (0)'),
  ('CC(=O)CC(=O)SC1=NCCS1', 'no (0)'),
  ('[2H]C1([2H])CCN(C(=O)C2CC2)c2cc(NS(=O)(=O)c3ccc(-c4cccc(C(N)=O)c4)cc3)ccc21', 'no (0)'),
  ('COc1cc(-c2nc(SCCC(C)C)nc(Nc3ccccc3)c2C#N)cc(OC)c1OC', 'no (0)'),
  ('CC1(C)CC[C@]2(C(=O)OC(=O)[C@]34CCC(C)(C)C[C@@H]3C3=CC[C@@H]5[C@@]6(C)CCC(=O)C(C)(C)[C@@H]6CC[C@@]5(C)[C@]3(C)CC4)CC[C@]3(C)C(=CC[C@@H]4[C@@]5(C)CCC(=O)C(C)(C)[C@@H]5CC[C@]43C)[C@H]2C1', 'no (0)'),
  ('Oc1cc(Nc2ccnc3cc(Cl)ccc23)c2ncccc2c1', 'no (0)'),
  ('O=C1CC(c2ccccc2)Cc2nc3ccc(Br)cc3cc21 (stereo not given)', 'no (0)'),
  ('Cc1ccc(S(=O)(=O)Nc2ccccc2)cc1N', 'no (0)'),
  ('COc1ccc2c(c1)C(C)Cc1c(ncnc1-n1cnc3ccccc31)N2C (stereo not given)', 'no (0)'),
  ('O=C(O)c1cccc(CN2CCN(c3cc4c(cc3F)c(=O)c(C(=O)O)cn4C3CC3)CC2)c1O', 'no (0)'),
  ('COC(=O)c1c(C)[nH]c(/C=C2\N=C(c3ccc[nH]3)C=C2OC)c1C', 'yes (1)'),
  ('O=C1CN(Cc2ccc(C(=O)NO)cc2)C(=O)[C@@H](Cc2ccccc2)N1', 'no (0)'),
  ('O=[N+]([O-])c1cc([N+](=O)[O-])c(C(F)(F)F)cc1NN=C(c1ccc(O)cc1)c1ccc(O)cc1', 'no (0)'),
  ('O=S(=O)(NCCCNc1nccc(-c2c(-c3cccc(F)c3)nc3occn23)n1)c1cccc2ccccc12', 'no (0)'),
  ('O=C1COCCN1c1ccc(NCc2cn(Cc3ccc(F)cc3)c3ccccc23)cc1', 'yes (1)'),
  ('CCc1cccc(Cl)c1', 'no (0)'),
  ('COc1cc(/C=C/C(=O)/C=C/c2ccc(-n3ccnc3)cc2)ccc1O', 'no (0)'),
  ('CC1(C)CC[C@]2(C(=O)O)CC[C@]3(C)C(=CC[C@@H]4[C@@]5(C)C/C(=C/c6cccnc6)[C@H](O)C(C)(C)[C@@H]5CC[C@]43C)[C@@H]2C1', 'yes (1)'),
  ('CCCCC(CC)COC(=O)C[N+](C)(C)CCOC(c1ccccc1)c1ccccc1 (stereo not given)', 'no (0)');
